Measured values drawn from ChEMBL document CHEMBL1773043 for this set.

System: Haemophilus influenzae
Experiment: Antibacterial activity against Haemophilus influenzae at 64 ug/ml after 20 hrs
Type: functional, organism-based
Activity calls are given as the source filed them. The rule behind the calls is not given here.
property: Activity

Study these solved cases before continuing.
- C/C(=C\CC[C@]1(C)C(=O)C=C[C@]23CC4C[C@H](O[C@]4(C)C2)C31)C(=O)N[C@@H](CCC(N)=O)C(=O)O (stereo partly drawn): inactive
- COC(=O)CC[C@]1(C)C(=O)C=C[C@]23CC4C[C@H](O[C@]4(C)[C@@H]2O)C13 (stereo partly drawn): inactive
- CC(=O)NCC[C@H](NC(=O)CC[C@]1(C)C(=O)C=C[C@]23CC4C[C@H](O[C@]4(C)C2)C31)C(=O)O (stereo partly drawn): inactive
- C=C1CC23C=CC(=O)[C@@](C)(CCC(=O)Nc4c(O)ccc(C(=O)OC)c4O)C2CC1[C@@H](O)C3 (stereo partly drawn): inactive
- CC12CC34C=CC(=O)[C@@](C)(CCC(=O)Nc5c(O)ccc(C(=O)O)c5O)C3C(C[C@]1(O)C4)O2 (stereo partly drawn): inactive
- C=C1CC23C=CC(=O)[C@@](C)(CCC(=O)OCC(O)CO)C2CC1CC3 (stereo partly drawn): inactive
- COC(=O)c1ccc(O)c(NC(=O)CC[C@]2(C)C(=O)C=CC34CCC(CC32)[C@@](O)(CO)C4)c1O (stereo partly drawn): inactive

Next item in the queue.
Input: Give its Activity value. Item: COC(=O)c1ccc(O)c(NC(=O)CC[C@]2(C)C(=O)C[C@@H](O)[C@]34CC5C[C@H](O[C@]5(C)C3)C42)c1O (stereo partly drawn)
Output: inactive
